Target: HIV-1 92RW020 envelope glycoprotein (Env), on pseudovirus (HIV-1 isolate 92RW020 (clade A))
Experiment: cell-based or functional assay
Measurement Type: IC50 (ug/ml), pseudovirus neutralization, TZM-bl assay (µg/mL)
Give the value, in units of µg/mL, as a plain number.

The recorded IC50 (ug/ml), pseudovirus neutralization, TZM-bl assay for entry 1456_A12 (PG16) (TCN-117) (antibody, V domains shown) VH: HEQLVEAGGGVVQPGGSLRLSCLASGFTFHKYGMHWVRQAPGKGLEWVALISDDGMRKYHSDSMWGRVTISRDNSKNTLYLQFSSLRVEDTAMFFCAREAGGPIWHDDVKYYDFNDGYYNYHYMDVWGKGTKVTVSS VL: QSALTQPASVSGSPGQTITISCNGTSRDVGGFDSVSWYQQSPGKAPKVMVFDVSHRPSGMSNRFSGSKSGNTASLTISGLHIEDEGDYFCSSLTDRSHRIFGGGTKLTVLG equals 0.05

Data credit: patent US20240132578A1
